- targetEntity: T1, PACAP-R3 (human, UniProt P41587 24-438)
- T1 sequence (looked up): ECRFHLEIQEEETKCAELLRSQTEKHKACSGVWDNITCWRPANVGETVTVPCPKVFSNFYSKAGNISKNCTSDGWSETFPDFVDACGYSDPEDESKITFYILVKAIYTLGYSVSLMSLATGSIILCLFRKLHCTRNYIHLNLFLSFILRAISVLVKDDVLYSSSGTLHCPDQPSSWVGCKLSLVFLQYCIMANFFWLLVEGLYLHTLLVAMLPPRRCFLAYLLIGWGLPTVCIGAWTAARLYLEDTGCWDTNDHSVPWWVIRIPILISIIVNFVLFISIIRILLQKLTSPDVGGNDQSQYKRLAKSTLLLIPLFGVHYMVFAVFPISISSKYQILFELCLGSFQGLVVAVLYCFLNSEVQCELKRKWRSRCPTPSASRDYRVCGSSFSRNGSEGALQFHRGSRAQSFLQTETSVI
- assayInfo: cell-based or functional assay
measurementType: R3 EC50 (nM)
Lab book: enter the figure in nM, no units written.

Examples with their reported R3 EC50 follow.
| binder | measurementType | readoutValue |
| --- | --- | --- |
| HSDAVFTDNYTRLRKQMAAKKYLNSIKNKL [R3P161] | R3 EC50 | 0.2 |
| HSDAVFTDNYTRLRKQMATKKYLNSIKNKR [R3P111] | R3 EC50 | 3 |
| HSDAVFTDNYTRLRKQMAAKKYLNSIKNQR [R3P145] | R3 EC50 | 0.5 |

Next up:
Any idea what its R3 EC50 is? The binder is HSDAVFTDNYTRLRKQMAAKKYLNSIANKR [R3P115] 6
